Assay: NCI Yeast Anticancer Drug Screen. Data for the rad50 strain (AID 155)
Settings: S. cerevisiae rad50 strain growth inhibition; at 1.2 µM
About 79,000 compounds went through this panel and 15% of them were active in at least one assay; those are over-represented in the sample as a whole. Calls of active or inactive are those of the source. Cut-off read from the data, not from the text of the source: active = growth inhibition above about 70%; inactive = the rest.
Entry note: the call must match one of TRUE for active, FALSE for inactive

Q: Status in this test for COc1cccc2c1C(=O)c1c(O)c3c(c(O)c1C2=O)C[C@@](O)(C(C)=O)C[C@@H]3OC1CC(OC(C)=O)C(OC(C)=O)C(C)O1 (stereo not given in full) ?
Result: FALSE

Q: Status in this test for CN(C)c1ccc(C2CC(C)(O)Oc3cc4c(cc32)OCO4)cc1 (stereo not given) ?
Result: FALSE

Q: Status in this test for CCCCCCCCCCCCCCCCOP(=O)(O)OCC(N)C(=O)O (stereo not given) ?
Result: FALSE

Q: Status in this test for CCOc1c(N=Nc2ccccc2OC)c(C)nn1C(=S)S ?
Result: FALSE

Q: Status in this test for CC(=O)Nc1ccc(/C=C/[N+](=O)[O-])cc1 ?
Result: FALSE

Q: Status in this test for NC1CCCCC1N.Nc1c(N=Nc2ccc(-c3ccc(N=Nc4cc(S(=O)(=O)[O-])c5ccccc5c4N)cc3)cc2)cc(S(=O)(=O)[O-])c2ccccc12.[OH3+].[OH3+].[Pt+4] ?
Result: FALSE

Q: Status in this test for COc1ccc(C(NCCNC(c2ccc(OC)c(OC)c2)c2cc3c(cc2O)OCO3)c2cc3c(cc2O)OCO3)cc1OC (stereo not given) ?
Result: FALSE

Q: Status in this test for Cc1ccc(Sc2ccccc2N)cc1 ?
Result: FALSE

Q: Status in this test for CCOC(=O)C1=C(C)NC(C)=C(C(=O)OCCNC(=O)c2ccc(N=[N+]=[N-])cc2)C1c1ccccc1C(F)(F)F (stereo not given) ?
Result: FALSE

Q: Status in this test for COc1nc2c(c(=O)n1C)N=C(c1ccccc1)[C@H](C(CC(=O)c1ccccc1)c1ccccc1)C(c1ccccc1)N2 (stereo not given in full) ?
Result: FALSE

Q: Status in this test for N#CNC(N)=Nc1cc2ccccc2c2ccccc12 ?
Result: FALSE

Q: Status in this test for CCC1(OC(=O)CN2CCN(CCO)CC2)C(=O)OCc2c1cc1n(c2=O)Cc2cc3ccccc3nc2-1 (stereo not given) ?
Result: FALSE

Q: Status in this test for NCCNCCNc1ccc(NCCNCCN)c2c1C(=O)c1c(O)ccc(O)c1C2=O ?
Result: FALSE

Q: Status in this test for CN(C)Cc1cc(N=Nc2ccc(Cl)cc2)ccc1OC(=O)c1ccccc1 ?
Result: FALSE

Q: Status in this test for O=[n+]1c2ccccc2n([O-])c2cc(Br)ccc21 ?
Result: TRUE

Q: Status in this test for Nc1ccc(F)cc1S ?
Result: FALSE

Q: Status in this test for O=C(CC(=O)n1nc(-c2ccccc2)c(N=Nc2ccc(Cl)cc2)c1-c1ccccc1)Nc1cccc(Cl)c1 ?
Result: FALSE

Q: Status in this test for O=C1NC(SSC2=NNC3(C(=O)N2)c2ccccc2-c2ccccc23)=NNC12c1ccccc1-c1ccccc12 ?
Result: FALSE

Q: Status in this test for N/C(=N/N=C/c1cc(Br)cc(Br)c1O)NO ?
Result: FALSE

Q: Status in this test for COc1ccc(C(=O)C(CN(C)C)CN(C)C)cc1 ?
Result: FALSE

This collection of values is drawn from PubChem BioAssay (NCI).
